Where do the numbers come from? From PubChem BioAssay (NCI).

test: NCI Yeast Anticancer Drug Screen. Data for the wt2 strain (AID 169); conditions: S. cerevisiae wt2 strain growth inhibition; at 11.0 µM
This is part of a sample that, as a whole, favours compounds with a hit. Of some 79,000 tested, about 15% had one in any assay. The source made the active and inactive calls. No stated cut-off is given here; in the data, active means growth inhibition above about 70%; inactive means the rest.
Possible outcomes: active, inactive

Molecule | Assigned category
c1ccc(C2=NNC3c4ccccc4-c4ccccc4N3C2)cc1 (stereo unspecified) | inactive
CN(C)CCNC(=O)c1cccc2nc3c(ccc4ccccc43)nc12 | inactive
c1cc2ccc3cc4ncccc4c4ccc(c1)c2c34 | inactive
CN(C)c1ccc(C(c2ccc(Cl)cc2)c2ccc(N(C)C)cc2)cc1 | inactive
O=C1C=CC(=Nc2ccc3c(c2)Cc2cc(Cl)ccc2-3)O1 | active
[Cl][Pt+2][Cl].[NH-]CC1(C[NH-])CCCCC1 | active
